The reported measurements were obtained from paper PMC4585259.

Listed below: pKd values for each entry.
molecular target: rNav1.2 sodium channels (Rattus norvegicus); construct: host or cells: HEK-293; assay: QPatch automated patch clamp, inhibition of sodium currents evoked by 5 Hz trains at three extracellular pH values; format: cell-based; details: pH=6.0; cc 100 mM; read-out: Apparent Affinity
Sequence (P04775 whole entry): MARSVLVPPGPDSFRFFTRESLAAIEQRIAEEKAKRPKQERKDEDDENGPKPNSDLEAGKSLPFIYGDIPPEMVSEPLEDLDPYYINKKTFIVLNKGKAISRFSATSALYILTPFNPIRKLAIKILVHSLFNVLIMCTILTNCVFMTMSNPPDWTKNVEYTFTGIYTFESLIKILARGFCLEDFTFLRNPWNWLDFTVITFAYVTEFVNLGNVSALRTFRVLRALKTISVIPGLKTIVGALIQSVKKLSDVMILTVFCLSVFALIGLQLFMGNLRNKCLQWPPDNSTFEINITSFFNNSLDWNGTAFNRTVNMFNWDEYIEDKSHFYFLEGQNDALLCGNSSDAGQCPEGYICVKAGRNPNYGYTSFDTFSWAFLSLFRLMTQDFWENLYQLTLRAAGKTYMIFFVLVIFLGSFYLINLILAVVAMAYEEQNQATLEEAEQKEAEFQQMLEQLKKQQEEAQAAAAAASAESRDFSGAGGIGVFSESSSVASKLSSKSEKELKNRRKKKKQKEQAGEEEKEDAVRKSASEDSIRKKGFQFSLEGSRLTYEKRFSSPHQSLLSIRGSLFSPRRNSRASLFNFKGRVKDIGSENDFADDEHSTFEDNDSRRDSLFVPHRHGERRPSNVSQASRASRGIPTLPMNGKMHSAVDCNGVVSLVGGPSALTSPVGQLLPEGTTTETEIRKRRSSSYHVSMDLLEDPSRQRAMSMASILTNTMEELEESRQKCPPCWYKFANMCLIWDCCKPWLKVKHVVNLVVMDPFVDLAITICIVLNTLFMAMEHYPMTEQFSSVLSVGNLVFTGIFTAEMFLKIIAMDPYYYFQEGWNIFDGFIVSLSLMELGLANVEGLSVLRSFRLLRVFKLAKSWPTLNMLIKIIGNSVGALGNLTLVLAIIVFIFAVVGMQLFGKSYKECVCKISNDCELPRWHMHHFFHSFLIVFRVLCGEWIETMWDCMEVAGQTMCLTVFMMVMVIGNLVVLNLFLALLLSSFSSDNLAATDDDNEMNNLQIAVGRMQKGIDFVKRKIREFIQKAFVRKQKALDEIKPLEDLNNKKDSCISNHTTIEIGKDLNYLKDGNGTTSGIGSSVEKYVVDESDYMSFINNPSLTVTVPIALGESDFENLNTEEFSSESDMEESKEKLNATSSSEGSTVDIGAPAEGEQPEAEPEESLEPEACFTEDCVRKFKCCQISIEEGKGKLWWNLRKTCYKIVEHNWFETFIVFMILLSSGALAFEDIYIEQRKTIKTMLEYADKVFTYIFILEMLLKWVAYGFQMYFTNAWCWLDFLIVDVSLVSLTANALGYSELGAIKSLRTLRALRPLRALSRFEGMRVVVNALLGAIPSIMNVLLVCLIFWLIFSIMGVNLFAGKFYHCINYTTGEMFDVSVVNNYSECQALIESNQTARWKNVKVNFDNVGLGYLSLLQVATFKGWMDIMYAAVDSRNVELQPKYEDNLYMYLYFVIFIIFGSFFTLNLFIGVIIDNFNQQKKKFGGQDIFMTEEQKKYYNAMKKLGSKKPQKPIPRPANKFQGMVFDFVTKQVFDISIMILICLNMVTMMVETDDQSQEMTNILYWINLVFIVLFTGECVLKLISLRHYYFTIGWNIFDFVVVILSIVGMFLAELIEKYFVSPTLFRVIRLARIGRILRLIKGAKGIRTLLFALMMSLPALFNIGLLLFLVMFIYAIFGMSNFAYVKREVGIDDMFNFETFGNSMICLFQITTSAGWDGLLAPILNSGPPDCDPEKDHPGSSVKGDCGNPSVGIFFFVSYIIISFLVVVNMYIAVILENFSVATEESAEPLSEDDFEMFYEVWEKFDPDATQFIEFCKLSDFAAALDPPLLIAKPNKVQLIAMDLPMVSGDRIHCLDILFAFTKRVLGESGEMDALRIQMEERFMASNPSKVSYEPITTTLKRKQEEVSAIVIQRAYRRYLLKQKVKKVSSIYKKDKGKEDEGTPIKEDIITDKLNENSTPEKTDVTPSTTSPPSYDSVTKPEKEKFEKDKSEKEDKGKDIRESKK
pKd here: minus log base 10 of the concentration, concentration in moles per litre.

// below: answered compounds
> print(dat)
                                   compound                               target.desc  reported.endpoint  test.value
1   CC12CC3CC(C)(C1)CC(N)(C3)C2 [memantine]  rNav1.2 sodium channels (Rattus norvegicus)                pKd        3.52
2  CCCCN1CCCCC1C(=O)Nc1c(C)cccc1C (stereo not drawn) [bupivacaine]  rNav1.2 sodium channels (Rattus norvegicus)                pKd        3.97
3  Cc1ccc(C(=O)C(C)CN2CCCCC2)cc1 (stereo not drawn) [tolperisone]  rNav1.2 sodium channels (Rattus norvegicus)                pKd        3.43
4  CN1CCN2c3ncccc3Cc3ccccc3C2C1 (stereo not drawn) [mirtazapine]  rNav1.2 sodium channels (Rattus norvegicus)                pKd        3.50
5  C[Si](C)(Cc1ccc(F)cc1)CN1CCCCC1 [silperisone]  rNav1.2 sodium channels (Rattus norvegicus)                pKd        3.48

Find pKd (rNav1.2 sodium channels (Rattus norvegicus)) for the entry Nc1c(Br)cc(Br)cc1CN[C@H]1CC[C@H](O)CC1 [ambroxol]
3.86
